The following molecules each carry a recorded GI50 for HS 578T.
Answer by giving the amount and then stating its unit.

Recorded GI50, per entry:
>>> df
                                   molecule  obs_value
0  CC1CC[C@@H]2C1[C@H](OC(=O)c1ccc3ccccc3c1)[C@]1(C3CCCCC3)C[C@@H](OC(=O)CO)[C@@]2(C)O1 (stereo partly drawn)      23 nM
1  C[C@@H]1CC[C@@H]2C1[C@H](OC(=O)/C=C/c1ccccc1)[C@]1(c3ccccc3)C[C@@H](OC(=O)CO)[C@@]2(C)O1 (stereo partly drawn)     112 nM

Attention now shifts to the item below.
Task item: Param request: GI50 | system HS 578T | item C/C(=C\C(=O)O[C@H]1C2C(C)CC[C@H]2[C@]2(C)O[C@@]1(C1CCCCC1)C[C@H]2OC(=O)CO)c1ccccc1 (stereo partly drawn)
Reply: 10 nM
